Tested on: ACHN
TEST_DETAILS: NCI tumour cell line growth inhibition, 48 h
Calls of active or inactive are those of the source. Rule as the data show it: active = GI50 up to about 1.1 µM and inactive = higher.
MEASUREMENT_LABEL: GI50

COMPOUND: S=C1SCN(C2CCCCCCCCCCC2)CN1C1CCCCCCCCCCC1
GI50: > 100 µM (inactive)

COMPOUND: C/N=c1\sc2c(n1C)C(=O)c1ccccc1C2=O
GI50: 5.81 µM (inactive)

COMPOUND: O=C1CSC(c2ccc([N+](=O)[O-])cc2)N1c1ccc(-n2c(-c3ccccc3)nc3ccccc3c2=O)cc1 (stereo unspecified)
GI50: 77.8 µM (inactive)

**Query** Query: GI50; subject: `O=c1[nH]c2cccc([N+](=O)[O-])c2c(=O)n1-c1ccc(Cl)cc1`
**Result** 8.51 µM (inactive)

**Query** Query: GI50; subject: `CCn1c(SCC(=O)NNC(=S)NC)nc2ccccc2c1=O`
**Result** > 100 µM (inactive)

**Query** Query: GI50; subject: `CCn1c(SCC(=O)N/N=C2\SCC(=O)N2c2ccc(C)cc2)nc2ccccc2c1=O`
**Result** 18.6 µM (inactive)

* * *

Quick reference for GI50 among some compounds
Tested on: EKVX
TEST_DETAILS: NCI tumour cell line growth inhibition, 48 h
Active and inactive are the calls of the source. Rule as the data show it: active = GI50 up to about 1.1 µM and inactive = higher.

COMPOUND: Nc1n[n+]([O-])c2ccc(Cl)cc2[n+]1[O-]
MEASUREMENT_LABEL: GI50
RESULT_VALUE: 32.2 µM (inactive)

**Query** Query: GI50; subject: `O=C(C[n+]1ccccc1)NNC(=O)/C(=C/c1ccc2c(c1)OCO2)NC(=O)c1ccccc1`
**Result** > 100 µM (inactive)

**Query** Query: GI50; subject: CCC1(O)CC(c2ccccc2)N(C)C(c2ccccc2)C1 (centres undefined)
**Result** > 100 µM (inactive)

**Query** Query: GI50; subject: `CCn1c(SCC(=O)NNC(=S)NC)nc2ccccc2c1=O`
**Result** > 100 µM (inactive)

* * *

Quick reference for GI50 among some compounds
Tested on: HCT-116
TEST_DETAILS: NCI tumour cell line growth inhibition, 48 h
Active and inactive are the calls of the source. Cut-off read from the data, not from the text of the source: active = GI50 up to about 1.1 µM and inactive = higher.

COMPOUND: c1cc2nnc1SCCCSc1ccc(nn1)SCCCSc1ccc(nn1)SCCCS2
RESULT_VALUE: > 100 µM (inactive)

COMPOUND: O=c1c2cc(-c3ccccc3)cnc2sn1-c1ccc(Oc2ccccc2)cc1
RESULT_VALUE: 51.9 µM (inactive)

COMPOUND: CCSc1nc(COC(=O)NC)c(COC(=O)NC)n1C
RESULT_VALUE: > 100 µM (inactive)

COMPOUND: CCc1cccc(C)c1NC(=O)CCc1nnc(S)[nH]1
RESULT_VALUE: > 100 µM (inactive)

COMPOUND: COc1cc(OC)c(/C=C/c2cnc3ccccc3n2)c(OC)c1
RESULT_VALUE: > 10 µM (inactive)

COMPOUND: CC1(C)Oc2ccc(Cl)cc2C12CC2
RESULT_VALUE: 14.7 µM (inactive)

COMPOUND: COc1cc2oc(=O)ccc2cc1CC=C(C)C [SUBEROSIN]
RESULT_VALUE: 38.6 µM (inactive)

COMPOUND: COC(=O)c1csc(-c2nc(CCNC(=O)OC(C)(C)C)sc2Br)n1
RESULT_VALUE: > 100 µM (inactive)

**Query** Query: GI50; subject: NC(=O)C(=O)C(c1ccccc1)S(=O)(=O)Cc1ccccc1 (stereo not given)
**Result** > 100 µM (inactive)
